Please go through the items and note down their cell viability.
# Tested on: K-562
# Assay: cell viability (% survival relative to DMSO control, bortezomib = 0%); higher = less cytotoxic
# Condition Summary: 10000 nM; 72 h

// sample CC(C)(CCCCCCCCCCC(C)(C)CC(=O)O)CC(=O)O [MEDICA 16] , its cell viability was 117%

// sample NS(=O)(=O)c1ccc(S(=O)(=O)Nc2cccc3c(Cl)c[nH]c23)cc1 [Indisulam] , its cell viability was 36.7%

// sample Cn1cc(C[C@@H](N)C(=O)O)c2ccccc21 [Indoximod] , its cell viability was 89.9%

// sample O=C(CCl)N(CCCNC(=O)C(F)(F)F)c1ccc([N+](=O)[O-])cc1 [ML175] , its cell viability was -0.364%

// sample O=C(c1c2ccccc2cc2ccccc12)N1CCC(N2CCC[C@@H](C(=O)N3CCOCC3)C2)CC1 , its cell viability was 75.7%

// sample Oc1ncc(F)c(O)n1 [5-fluorouracil] , its cell viability was 68.9%

// sample O=NN(CCCl)C(=O)NCCCl [Carmustine] , its cell viability was 101%

// sample O=C1N[C@@H]2[C@@H](O)[C@@H](O)[C@H](O)[C@@H](CO)N2C1=O [Kifunensine] , its cell viability was 107%

// sample CCCC(CCC)C(=O)O [Valproic acid] , its cell viability was 112%
